# measured-target: Discoidin domain-containing receptor 2 (Homo sapiens);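 also: reported figure is the mean inhibition of DDR2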
# Sequence (whole entry): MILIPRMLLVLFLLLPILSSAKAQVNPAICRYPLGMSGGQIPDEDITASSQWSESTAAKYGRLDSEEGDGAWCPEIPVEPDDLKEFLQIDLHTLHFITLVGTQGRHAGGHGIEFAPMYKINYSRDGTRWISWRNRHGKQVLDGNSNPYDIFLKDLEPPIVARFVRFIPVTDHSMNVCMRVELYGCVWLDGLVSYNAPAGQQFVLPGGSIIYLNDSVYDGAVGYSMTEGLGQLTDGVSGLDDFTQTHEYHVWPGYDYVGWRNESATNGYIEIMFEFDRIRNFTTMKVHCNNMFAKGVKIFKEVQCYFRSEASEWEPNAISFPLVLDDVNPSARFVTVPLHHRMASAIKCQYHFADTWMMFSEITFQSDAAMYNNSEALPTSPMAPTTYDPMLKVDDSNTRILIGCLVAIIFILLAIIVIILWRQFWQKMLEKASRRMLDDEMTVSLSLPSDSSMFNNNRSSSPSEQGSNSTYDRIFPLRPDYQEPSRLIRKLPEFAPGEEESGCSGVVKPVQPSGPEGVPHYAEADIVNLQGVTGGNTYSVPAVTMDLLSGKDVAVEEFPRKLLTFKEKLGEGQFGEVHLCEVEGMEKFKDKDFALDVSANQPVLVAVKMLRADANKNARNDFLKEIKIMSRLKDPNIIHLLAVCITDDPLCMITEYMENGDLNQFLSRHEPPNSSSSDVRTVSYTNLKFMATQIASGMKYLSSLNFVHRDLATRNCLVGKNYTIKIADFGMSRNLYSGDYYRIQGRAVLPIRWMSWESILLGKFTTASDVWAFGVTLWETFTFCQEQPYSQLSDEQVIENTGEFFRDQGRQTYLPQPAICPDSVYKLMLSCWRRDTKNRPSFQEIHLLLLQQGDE
# test-parameters: at 1 µM
Think of 2% as a floor: if inhibition stands on it or above, it is condition met; beneath it, condition not met.

compound	category-label
CCn1c(-c2nonc2N)nc2cncc(C(=O)N3CCNCC3)c21	condition not met
CS(=O)(=O)CCNCc1ccc(-c2ccc3ncnc(Nc4ccc(OCc5ccccc5)c(Cl)c4)c3c2)o1	condition met
COc1cc2ncn(-c3cc(OCc4ccccc4Cl)c(C(N)=O)s3)c2cc1OC	condition not met
CC1=C(C(=O)Nc2ccc3[nH]ncc3c2)C(c2ccc3ccccc3c2)CC(=O)N1 (stereo not given)	condition not met
Cc1ccc(NC(=O)c2ccnc(N3CCCC3)c2)cc1-c1ccc(C(=O)NCC2CC2)cc1	condition met

###

# measured-target: Tyrosine-protein kinase FRK (Homo sapiens);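 also: values are mean inhibition of PTK5 (FRK) kinase activity from the GSK PKIS screening set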
# test-parameters: at 0.1 µM

compound	unit-name	inhibition
CC1=C(C(=O)Nc2ccc3[nH]ncc3c2)C(c2ccc3ccccc3c2)CC(=O)N1 (stereo not given)	%	2.73
O=C1NC(=O)C(c2ccc(Cl)cc2)=C1Nc1ccc(Cl)c(C(=O)O)c1	%	-0.84
CS(=O)(=O)CCNCc1ccc(-c2ccc3ncnc(Nc4ccc(OCc5ccccc5)c(Cl)c4)c3c2)o1	%	0.96
CS(=O)(=O)CCNCc1ccc(-c2ccc3ncnc(Nc4ccc(OCc5cccc(F)c5)c(C(F)(F)F)c4)c3c2)o1	%	2.17
CCn1c(-c2nonc2N)nc2ccncc21	%	0.98
Fc1cccc(COc2ccc(Nc3ncnc4cc(-c5ccc[nH]5)sc34)cc2Cl)c1	%	2.14
COc1ccc(-c2ccncc2)cc1C(N)=O	%	4.92
O=C1NC(=O)C(c2cccc(Cl)c2)=C1Nc1ccc(O)c(Cl)c1	%	-0.47
COc1cccc(-n2ncc3c(N/N=C/c4cccc(F)c4)ncnc32)c1	%	1.84
Fc1cccc(COc2ccc(Nc3ncnc4sc(-c5cccs5)cc34)cc2Cl)c1	%	1.12
